# system under test: T1, orthogonal hCD122 receptor (hoRb), hCD122 with H133D and Y134F (human, UniProt P14784 27-550)
# T1 sequence: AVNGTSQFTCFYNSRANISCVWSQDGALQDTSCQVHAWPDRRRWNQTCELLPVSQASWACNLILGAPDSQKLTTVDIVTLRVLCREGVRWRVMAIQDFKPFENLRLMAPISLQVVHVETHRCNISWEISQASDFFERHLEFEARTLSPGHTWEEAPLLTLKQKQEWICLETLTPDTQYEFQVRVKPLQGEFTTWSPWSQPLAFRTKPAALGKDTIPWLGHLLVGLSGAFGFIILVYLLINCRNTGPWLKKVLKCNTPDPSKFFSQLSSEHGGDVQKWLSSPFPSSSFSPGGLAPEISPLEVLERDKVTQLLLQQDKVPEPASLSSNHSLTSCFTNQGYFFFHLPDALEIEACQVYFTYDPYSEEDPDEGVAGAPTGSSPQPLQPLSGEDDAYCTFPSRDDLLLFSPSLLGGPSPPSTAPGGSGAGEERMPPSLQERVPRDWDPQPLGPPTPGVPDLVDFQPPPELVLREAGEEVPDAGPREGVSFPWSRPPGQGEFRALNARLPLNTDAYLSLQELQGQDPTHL
# run description: cell-based or functional assay
Measured 3F8 Ortho Proliferation Signal 1:50 values are reported for all entries that follow.

[
  {
    "binder": "ΔR81, SQVLKA (ligand) APTSSSTKKTQLQLSQLLVLLKAILNGINNYKNPKLTRMLTFKFYMPKKATELKHLQCLEEELKPLEEVLNLAQSKNFHLPRDLISNINVIVLELKGSETTFMCEYADETATIVEFLNRWITFCQSIISTLT",
    "value": "22000 cts/min"
  }
]

# input for lookup
Look at this binder and give its reported 3F8 Ortho Proliferation Signal 1:50. ΔM23, SQVLK- (ligand) APTSSSTKKTQLQLSQLLVLLKILNGINNYKNPKLTRMLTFKFYMPKKATELKHLQCLEEELKPLEEVLNLAQSKNFHLRPRDLISNINVIVLELKGSETTFMCEYADETATIVEFLNRWITFCQSIISTLT
2930 cts/min

The reported measurements were obtained from patent US20210196796A1.
